measurement-target: T1, CEACAM1 (Sino Biological) (human, UniProt P13688 35-428, limits assumed)
T1 construct: may be the same as CEACAM1-HIS; also called hCEACAM1; biotinylated soluble CEACAM1
T1 sequence: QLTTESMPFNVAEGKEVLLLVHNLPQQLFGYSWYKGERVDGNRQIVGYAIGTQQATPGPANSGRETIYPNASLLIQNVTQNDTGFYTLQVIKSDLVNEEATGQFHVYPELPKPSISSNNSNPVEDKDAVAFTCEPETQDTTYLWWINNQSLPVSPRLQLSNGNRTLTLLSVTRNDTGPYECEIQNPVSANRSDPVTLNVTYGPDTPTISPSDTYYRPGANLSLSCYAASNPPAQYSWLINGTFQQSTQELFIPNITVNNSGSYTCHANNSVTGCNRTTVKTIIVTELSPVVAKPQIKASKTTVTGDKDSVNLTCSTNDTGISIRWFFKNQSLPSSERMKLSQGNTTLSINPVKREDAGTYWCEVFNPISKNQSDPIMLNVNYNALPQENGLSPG
assay-notes: SPR single-cycle
Listing: fold better than Parent (KD) of selected binders

# count of solved cases: 2
binder	result
Parent VH/L3 (antibody, IgG4, V domains shown, IgG4 S241P, kappa) VH: EVQLLESGGGLVQPGGSLRLSCAASGFSFSDYYLYWVRQAPGKGLEWVATISVGGGQTSYADSVKGRFTISRDNSKNTLYLQMNSLRAEDTAMYYCTRGLYYGPAWFAYWGQGTLVTVSS VL: DIVMTQSPDSLAVSLGERATINCKSSQSLLNSANQKNYLAWYQQKPGQPPKLLIYFASTRESGVPDRFSGSGSGTDFTLTISSLQAEDVAVYYCQSHFPFPFTFGGGTKVEIK	2.53 fold
Parent VH/L17 (antibody, IgG4, V domains shown, IgG4 S241P, kappa) VH: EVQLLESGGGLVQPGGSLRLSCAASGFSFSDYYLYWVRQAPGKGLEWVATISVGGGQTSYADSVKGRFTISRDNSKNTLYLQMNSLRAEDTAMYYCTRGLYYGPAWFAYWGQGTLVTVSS VL: DIVMTQSPDSLAVSLGERATINCKSSQSLLNSANQKNYLAWYQQKPGQPPKLLIYFASTRESGVPDRFSGSGSGTDFTLTISSLQAEDVAVYYCQSHYPYPYTFGGGTKVEIK	2.08 fold

Now for the binder whose fold better than Parent (KD) we want.
# fold better than Parent (KD) of He4/L20 (antibody, IgG4, V domains shown, IgG4 S241P, kappa) VH: EVQLLESGGGLVQPGGSLRLSCAASGFSFSDYYLYWVRQAPGKGLEWVATISVGGGQTSYADSVKGRFTISRDNSKNTLYLQMNSLRAEDTAMYYCTRALYYGPAWFAYWGQGTLVTVSS VL: DIVMTQSPDSLAVSLGERATINCKSSQSLLNSANQKNYLAWYQQKPGQPPKLLIYFASTRESGVPDRFSGSGSGTDFTLTISSLQAEDVAVYYCQSHFPYPLTFGGGTKVEIK = 1.77 fold
